molecular target: T1, human cannabinoid receptor type 2 (CB2) (human, UniProt P34972 1-360); assay: fold over mock (Table 14)
T1 construct: also called huCB2; full length hu CB2
T1 sequence (P34972 whole entry): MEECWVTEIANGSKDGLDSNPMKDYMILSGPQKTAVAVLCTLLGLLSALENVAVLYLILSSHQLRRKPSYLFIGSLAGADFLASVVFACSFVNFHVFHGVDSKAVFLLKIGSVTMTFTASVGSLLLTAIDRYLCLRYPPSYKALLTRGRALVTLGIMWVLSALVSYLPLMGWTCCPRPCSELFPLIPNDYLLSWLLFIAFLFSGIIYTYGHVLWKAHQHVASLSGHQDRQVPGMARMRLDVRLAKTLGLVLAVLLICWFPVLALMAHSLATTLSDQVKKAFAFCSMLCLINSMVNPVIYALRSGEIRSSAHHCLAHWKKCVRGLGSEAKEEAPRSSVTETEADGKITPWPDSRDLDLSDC
Quantity measured: binding result

LIBC523797-1 (antibody, IgG1, V domains shown) VH: QVQLQESGPGLVKPSQTLSLTCTVSGGSIRRGGDYWSWIRQHPGKGLEWIGHVYYTGSTKYNPNFKGRATISVNTYKNQFSLKLSSVTAADTAVYYCARDYDILTGYSYYYYGMDVWGQGTTVTVSS VL: DIVMTQSPLSLPVTPGEPASISCRSSQSLLTSYGINYVDWYLQKPGQSPQLLIYQGSNRASGVPDRFSGSGSGTDFTLKISRVEAEDVGVYYCRQAVGLPRTFGQGTKVEIKR :: no binding
LIBC528116-1 (antibody, IgG1, V domains shown, also called 37940-4) VH: QVQLQESGPGLVKPSQTLSLTCTVSGGSIRRGGDYWAWIRQHPGKGLEWIGHVYYTGSTNYNPRFKDRATISVNTYKNQFSLKLSSVTAADTAVYYCARNYDTVTGYSYYYYGMDVWGQGTTVTVSS VL: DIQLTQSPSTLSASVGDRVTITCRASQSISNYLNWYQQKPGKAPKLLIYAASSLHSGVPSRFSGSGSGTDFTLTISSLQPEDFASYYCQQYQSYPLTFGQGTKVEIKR :: no binding
